Below are compounds with their log10 GI50 as measured on OVCAR-3.
In plain terms, each number is the log10 of measured GI50 in nM.

Prompt: Which log10 GI50 value belongs to COc1ccc(S(=O)(=O)Nc2cc(/C=C\c3cc(OC)c(OC)c(OC)c3)cc(OC)c2OC)cc1 [13a] ?
Response: 1.54

Prompt: Item: COc1cc(/C=C\c2cc(OC)c(OC)c(OC)c2)cc(NS(=O)(=O)c2ccc(Cl)cc2)c1OC [13c]
Response: 2.56

Prompt: Item: COc1ccc(S(=O)(=O)Nc2cc(/C=C\c3cc(OC)c(OC)c(OC)c3)ccc2OC)cc1 [12a]
Response: 1.72

Prompt: Item: COc1ccc(/C=C\c2cc(OC)c(OC)c(OC)c2)c(NS(=O)(=O)c2ccc(Cl)cc2)c1O [17c]
Response: 1.78

Prompt: Item: COc1ccc(S(=O)(=O)Nc2c(/C=C\c3cc(OC)c(OC)c(OC)c3)ccc(OC)c2O)cc1 [17a]
Response: 1.53
